- assay method text: qHTS assay for small molecule disruptors of the mitochondrial membrane potential (AID 720635)
- details: HepG2 mitochondrial membrane potential, Mito-MPS dye ratio; series mostly up to 83.2 µM
Records with an inconclusive call do not appear. Active and inactive are the calls of the source. The call rests on the fitted dose curve; in most records, active means well fitted inhibition curve with a large enough effect in the signal ratio in the repeat runs; inconclusive means weak or mixed curves, or effect the other way; inactive means flat fitted curve, though single readings scatter; the % refers to the signal ratio.
Thanks in advance; please answer with one of these: active, inactive

Please indicate how the test categorized CC(C)N(C(=O)CCl)c1ccccc1 . inactive

Which outcome did this test record for the compound CC1(C)[C@H](/C=C2\CCSC2=O)[C@@H]1C(=O)OCc1coc(Cc2ccccc2)c1 ? active

* * *

- assay method text: qHTS assay for small molecule agonists of the antioxidant response element (ARE) signaling pathway - cell viability counter screen (AID 743203); further: on the % scale 0 is the no-effect control and ±100 the full control effect; nearly all actives have a fitted effect of over 55% in size
- details: ARE-bla HepG2 viability, CellTiter-Glo luminescence, 16 h; series mostly up to 73.3 µM
Inconclusive results are not listed. Active and inactive are the calls of the source. Calls come from the whole dose curve.
Just give me one of these, please: active, inactive

C[C@H]1[C@H](c2ccc(Cl)cc2)SC(=O)N1C(=O)NC1CCCCC1
inactive
O=P(Cl)(Cl)Cl
inactive
CC(C)=CC1C(C(=O)OC(C#N)c2cccc(Oc3ccccc3)c2)C1(C)C (configuration not stated)
inactive
O=C1C[C@@H]2OCC=C3CN4CC[C@]56c7ccccc7N1[C@H]5[C@H]2[C@H]3C[C@H]46
inactive
COc1ccc2c(c1OC)C(=O)O[C@@H]2[C@H]1c2cc3c(cc2CCN1C)OCO3
inactive

Test call for this compound, please: COP(=S)(OC)Oc1ccc([N+](=O)[O-])c(C)c1 inactive

Hello, I am checking results. What call was entered for COC(=O)/C=C(\C)OP(=O)(OC)OC ? inactive

Outcome logged for CC(C)c1c(CN(C)C(C)Cc2ccccc2)n(C)n(-c2ccccc2)c1=O (configuration not stated) in this assay: inactive

* * *

- assay method text: qHTS assay to identify small molecule agonists of H2AX - cell viability counter screen (AID 1224847); further: nearly all actives have a fitted effect of over 30% in size
- details: CHO-K1 viability, CellTiter-Glo luminescence, 3 h; series mostly up to 154 µM
Records with an inconclusive call do not appear. Active and inactive are the calls of the source. Calls follow the shape of the full dose curve.
Choose one outcome from this list and give only that: 1 (active), 0 (inactive)

Record excerpt, results attached:
[O-][Cl+3]([O-])([O-])O
0
FC(F)C(F)(F)OCC(Cn1cncn1)c1ccc(Cl)cc1Cl (stereo not drawn)
1
Nc1nc(N)nc(Cl)n1
0
CC(=O)O.CC(=O)O.CC(=O)O.CC(=O)O.CC(=O)O.CC(=O)O.CC(=O)O.O.O.[Cr].[Cr].[Cr]
0
CCC(C)c1cccc(C(C)CC)c1O (stereo not drawn)
1
Cc1cnc2c(C(=O)O)c(Cl)ccc2c1
0

How was O=P(Cl)(Cl)Cl classified in this test? 0

Could you check what this test reported for COP(=S)(OC)Oc1nc(Cl)c(Cl)cc1Cl ? 0

Tell me the assay call for S=C=Nc1ccccc1 please. 0

Could you please tell me the result logged for ClCBr in this assay? 0

State the result this test recorded for CCCCON=O . 0

So what was the verdict on CC(C)=CCN1CC[C@@]2(C)c3cc(O)ccc3C[C@@H]1[C@@H]2C in this test? 0

Could you kindly confirm the outcome this assay logged for C[N+]1(C)[C@@H]2CC[C@H]1CC(OC(=O)C(CO)c1ccccc1)C2 (stereo partly drawn) ? 0

* * *

- assay method text: qHTS RealTime-Glo MT Cell Viability Assay in HepG2 cells - 32 hour (AID 1224877); further: nearly all actives have a fitted effect of over 55% in size; further: potency means the concentration at half of the fitted maximal effect
- details: RealTime-Glo luminescence; series mostly up to 76.8 µM
- Excerpt: U.S. Tox21 Program National Center for Advancing Translational Sciences [NCATS] NIH Chemical Genomics Center [NCGC] U.S. Environmental Protection Agency [EPA] National Institutes of Environmental Health Sciences [NIEHS] National Toxicology Program [NTP] U.S. Food and Drug Administration [FDA] Tox21 Assay Overview: Measure of cell viability is critical in the cell-base assay. Analysis of cell viability is necessary for the characterization of cell responses to cytotoxic drugs and environmental stress. […]
Results filed as inconclusive are left out. Calls of active or inactive are those of the source. Calls come from the whole dose curve; as a rule, active = well fitted cell-killing curve with a large enough effect in the repeat runs; inconclusive = weak or mixed curves; inactive = flat fitted curve, though single readings scatter.
property name: Potency

O=[N+]([O-])C(Br)Br
inactive
CCC[CH2][Sn]([CH2]CCC)([CH2]CCC)[O][Sn]([CH2]CCC)([CH2]CCC)[CH2]CCC
0.537 µM (active)
O=[N+]([O-])c1ccc(CCl)cc1
inactive
O=S(=O)(NS(=O)(=O)C(F)(F)F)C(F)(F)F
inactive
CN/C(=N\[N+](=O)[O-])NCc1cnc(Cl)s1
inactive
CCCN
inactive
CCN1CCC2(CC1)COc1cc3c(cc12)N(C(=O)c1ccc(-c2ccc(-c4nnc(C)o4)cc2C)cc1)CC3
45.2 µM (active)
CCN(CC)CCN1C(=O)CN=C(c2ccccc2F)c2cc(Cl)ccc21
inactive

Look up Potency for the entries below, preserving their order.
1. c1ccc2c(c1)cc1ccc3cccc4ccc2c1c34
2. COc1ccc2[nH]cc(CCN(C(C)C)C(C)C)c2c1
3. CC1(C)C(C=C(Cl)Cl)C1C(=O)OC(C#N)c1ccc(F)c(Oc2ccccc2)c1 (configuration not stated)
4. CN1CCc2cc(Cl)c(O)cc2[C@H]2c3ccccc3CC[C@@H]21

1: inactive; 2: inactive; 3: inactive; 4: inactive
